targetUnderTest: soluble human furin (human) (UniProt P09958)
experimentNotes: enzyme inhibition
Non-standard residues stand in square brackets, D forms with d. No end group written: not given here.
metricName: Ki

Ki for [dR][dR][dR][dR][dR][dR][dR][dR][dR] [nona-D-arginine] ?
140 nM
